# Tested on: HSPA6
# assay method text: mRNA expression (Quantigene Plex) in NHLF cells: HSPA6; also: test concentration or dose not given here
# Type: cell-based, human
# recorded conditions: Table 6, 6 h, mRNA normalized to GAPDH, above DMSO treated cells
property: HSPA6 (fold induction)
Answers are plain numbers, in fold induction.

Q: Note HSPA6 (fold induction) for the molecule shown: COC(=O)[C@]12CCC(C)(C)CC1C1C(=O)C=C3[C@@]4(C)CC(C#N)C(=O)C(C)(C)[C@@H]4CC[C@@]3(C)[C@]1(C)CC2 (stereo partly shown) [Compound 5, reference compound]
A: 1.60

Q: Provide HSPA6 (fold induction) value for the following molecule: COC(=O)c1ccc2[nH]c(Nc3nc4ccccc4s3)nc2c1
A: 1.08

Q: Please look at this molecule and report its HSPA6 (fold induction): C=Cc1c(C)c2cc3[nH]c(cc4nc(cc5nc(cc1[nH]2)C(C)=C5CCC(=O)[O-])C(CCC(=O)[O-])=C4C)c(C)c3C=C.[Co+2] [CoPP, Cobalt protoporphyrin IX, reference compound]
A: 0.86

New cases:
Q: Could you please provide reported HSPA6 (fold induction) for CC1OCCC1S(=O)(=O)c1c(-c2ccc(C(F)(F)F)cc2)cnc2ccccc12 (stereo not shown) ? Thanks!
A: 2.71

---

# Test system: NQO1
# assay method text: mRNA expression (Quantigene Plex) in NHLF cells: NQO1; also: test concentration or dose not given here
# Format: cell-based, human
# recorded conditions: Table 6, 6 h, mRNA normalized to GAPDH, above DMSO treated cells
So I've got a bunch of molecules here, and I need their NQO1 (fold induction) values.
Hi, when you answer, please include the unit after the number. Thanks!

Q: Quickly give me recorded NQO1 (fold induction) for CC1OCCC1S(=O)(=O)c1c(-c2ccc(C(F)(F)F)cc2)cnc2ccccc12 (stereo not shown) [Compound 3]
A: 1.69 fold induction

Q: Supply NQO1 (fold induction) value. Item: COC(=O)[C@]12CCC(C)(C)CC1C1C(=O)C=C3[C@@]4(C)CC(C#N)C(=O)C(C)(C)[C@@H]4CC[C@@]3(C)[C@]1(C)CC2 (stereo partly shown) [Compound 5, reference compound]
A: 2.01 fold induction

Q: Please supply the value of reported NQO1 (fold induction) for the item C=Cc1c(C)c2cc3[nH]c(cc4nc(cc5nc(cc1[nH]2)C(C)=C5CCC(=O)[O-])C(CCC(=O)[O-])=C4C)c(C)c3C=C.[Co+2] [CoPP, Cobalt protoporphyrin IX, reference compound]
A: 4.22 fold induction

Others:
Q: Give the reported value of NQO1 (fold induction) for this record: COC(=O)c1ccc2[nH]c(Nc3nc4ccccc4s3)nc2c1 [Compound 4]
A: 1.85 fold induction
